Target: T1, 融合至人IgG1 Fc段的人Siglec-15胞外结构域的重组蛋白Siglec-15-Fc (human, UniProt Q6ZMC9 20-263)
T1 construct: extracellular domain; also called 人Siglec-15重组蛋白; Siglec-15-Fc重组蛋白; not shown: human IgG1 Fc segment
T1 sequence (looked up): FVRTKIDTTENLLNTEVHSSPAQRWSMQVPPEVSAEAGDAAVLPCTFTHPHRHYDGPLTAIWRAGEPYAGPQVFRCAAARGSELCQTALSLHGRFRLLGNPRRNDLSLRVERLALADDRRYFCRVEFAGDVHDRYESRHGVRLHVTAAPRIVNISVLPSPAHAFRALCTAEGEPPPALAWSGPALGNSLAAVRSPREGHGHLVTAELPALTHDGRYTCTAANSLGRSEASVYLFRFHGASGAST
Test: indirect ELISA, plate coated with 0.5 ug/ml Siglec-15-Fc, purified antibody titrated from 10 ug/ml
What EC50 was measured for each of the following?
Answers are plain numbers, in ng/mL.

See these solved cases before continuing.
1) KD075-C30 (antibody, V domains shown) VH: DVQLVESGGGLVQPGGSRKLSCAASGFTFSSFGMHWVRQAPEKGLEWVAYISSGSSSIYYADTVKGRFTISRDNPKNTLFLQMTSLRSEDTAMYYCARTFPMDYWGQGTSVTVSS VL: QAVVTQESALTTSPGETVTLTCRSSTGAVTISNYANWVQEKPDHLFTGLIGGTYNRSPGVPARFSGSLIGDKAALTITGAQTEDEAIYFCALWYSNHWVFGGGTKLTVL
2.27
2) KD075-C52 (antibody, V domains shown) VH: EVQLVESGGGLVKPGGSLKLSCAASGFTFSYYAMSWVRQTPEKRLEWVATVSDVDDYTYYPDNVKGRFNISRDNAKNNLYLQMRHLKSEDTAMYYCVRDGSYGWYFDVWGTGTTVTVSS VL: DIVMTQSPSSLTVTAGEKVTMSCKSSQSLLNSGNQKNYLTWYQQKPGQTPKLLIYWASTRESGVPDRFTGSGSGTDFTLTISSVQAEDLAVYYCQNDYSYPLTFGTGTKLELK
2.25
3) KD075-C31 (antibody, V domains shown) VH: DVQLVESGGGLVQPGTSRKLSCTASGFTFSSFGMHWVRQAPEKGLEWVAYISSGSSSIYYADTVKGRFTISRDNPKNTLFLQMTSLRSEDTAIYYCARTFPMDYWGQGTSVTVSS VL: QAVVTQESALTTSPGETVTLTCRSSTGAVTISNYANWVQEKPDHLFTGLIGGTYNRSPGVPARFSGSLIGDKAALTITGAQTEDEAIYFCALWYSNHWVFGGGTKLTVL
2.4

Kindly give each listed record's EC50.
1. KD075-C40 (antibody, V domains shown) VH: EVRLQQSGPELVKPGASVKISCKASGYTFTDYNIHWMKQSHGKSLEWIGYIYPSFGGTAYNQKFKSKATLTVDNSSSTAYMEFRSLTSEDSAVYFCAVYGNYEGFAYWGQGTLVTVSA VL: ENVLTQSPAIMSASLGEKVTMSCRASSSVNYMYWYQQKSDASPKLWIYYTSNLAPGVPARFSGSGSGNSYYLTISSMEGEDAATYYCQQFTSSPWTFGGGTKLEIK
2. KD075-C46 (antibody, V domains shown) VH: EVKLVESEGGLVQPGSSMKLSCTASGFTFSDYYMAWVRQVPEKGLEWVAKINYDGSSTYYLDSLKSRFIISRDNAKNILYLQMSSLKSEDTATYYCARSYDYDGYYFDYWGQGTTLTVSS VL: DIVLTQSPASLAMSLGKRATISCRASESVSIIGTNLIHWYQQKPGQPPKLLIYHASNLETGVPARFSGSGSRTDFTLTIDPVEEDDVAIYYCLQSRKIPWTFGGGTKLEIK

-- reply
2.41
2.29

Data origin: patent CN112159475A
